- TARGET DESC: 5-hydroxytryptamine receptor 2A (Homo sapiens) (UniProt P28223)
- Sequence (P28223 whole entry, looked up): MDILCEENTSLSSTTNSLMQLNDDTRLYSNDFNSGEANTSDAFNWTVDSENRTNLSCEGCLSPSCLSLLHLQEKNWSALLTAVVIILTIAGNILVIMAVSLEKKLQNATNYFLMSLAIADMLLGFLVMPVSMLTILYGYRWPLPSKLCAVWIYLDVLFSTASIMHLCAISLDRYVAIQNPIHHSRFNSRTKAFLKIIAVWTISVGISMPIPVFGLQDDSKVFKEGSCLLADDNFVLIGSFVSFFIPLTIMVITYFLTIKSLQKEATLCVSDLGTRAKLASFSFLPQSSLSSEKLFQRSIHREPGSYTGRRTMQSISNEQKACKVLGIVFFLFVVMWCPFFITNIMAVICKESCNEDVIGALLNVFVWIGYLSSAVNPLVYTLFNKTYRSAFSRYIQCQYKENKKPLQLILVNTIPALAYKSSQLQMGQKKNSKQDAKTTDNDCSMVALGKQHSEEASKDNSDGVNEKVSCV
- PROTOCOL: 5-hydroxytryptamine receptor 2A (HTR2A) small molecule agonists, cell-based qHTS assay (AID 1963587); note: nearly all actives have a fitted effect of over 30% in size
- CONDITION: HTR2A-CHO cells, calcium flux fluorescence, agonist mode; series mostly up to 76.8 µM
Inconclusive results are not listed. Calls of active or inactive are those of the source. Calls come from the whole dose curve.
Give your call using only these classes: true (1) for active, false (0) for inactive

1) CC(C)CC(C)Nc1ccc(Nc2ccccc2)cc1 (configuration not stated) :: false (0)
2) CCN(CC)CCOC(=O)C(C)(c1ccccc1)c1ccccc1 :: false (0)
3) O=[N+]([O-])c1cccc2cccnc12 :: false (0)
4) COC(=O)C(C)N(C(=O)c1ccco1)c1c(C)cccc1C (configuration not stated) :: false (0)
5) c1cc(OCC2CO2)ccc1Cc1ccc(OCC2CO2)cc1 (configuration not stated) :: false (0)

// query What outcome does the record of this test show for `CC(=O)[C@H]1CC[C@H]2[C@@H]3CC[C@H]4C[C@H](O)CC[C@]4(C)[C@H]3C(=O)C[C@]12C` ?
// result false (0)

// query What outcome does the record of this test show for `CC(=O)[O-].[Tl+]` ?
// result false (0)

// query What outcome does the record of this test show for `CCOC(=O)CBr` ?
// result false (0)

// query What outcome does the record of this test show for `CN(C)c1ccc(N)cc1` ?
// result false (0)

// query What outcome does the record of this test show for `CCOP(=O)(OCC)Oc1cc(C)nc(C(C)C)n1` ?
// result false (0)

// query What outcome does the record of this test show for `COC(=O)C1=CCCN(C)C1` ?
// result false (0)

// query What outcome does the record of this test show for `CCc1ccc(C(=O)NN(C(=O)c2cc(C)cc(C)c2)C(C)(C)C)cc1` ?
// result false (0)

// query What outcome does the record of this test show for `CCCC[N+](=O)[O-]` ?
// result false (0)

// query What outcome does the record of this test show for `C/C=C/C=O` ?
// result false (0)

// query What outcome does the record of this test show for `S=C(SSC(=S)N1CCCCC1)N1CCCCC1` ?
// result true (1)

// query What outcome does the record of this test show for `O=[N+]([O-])c1ccc(Oc2ccc(C(F)(F)F)cc2[N+](=O)[O-])cc1` ?
// result false (0)

// query What outcome does the record of this test show for `N#Cc1c[nH]cc1-c1cccc2c1OC(F)(F)O2` ?
// result false (0)

// query What outcome does the record of this test show for `O=[N+]([O-])C(Br)Br` ?
// result true (1)

// query What outcome does the record of this test show for CCOP(=S)(OCC)OC(Cl)C(Cl)(Cl)Cl (configuration not stated) ?
// result false (0)

// query What outcome does the record of this test show for `O=C(Nc1ccccc1)Nc1ccnc(Cl)c1` ?
// result false (0)

// query What outcome does the record of this test show for CC(Cl)C(C)Cl (configuration not stated) ?
// result false (0)

// query What outcome does the record of this test show for `[Cl][Sn]([c]1ccccc1)([c]1ccccc1)[c]1ccccc1` ?
// result true (1)

// query What outcome does the record of this test show for `O=C1CN=C(c2ccccc2)c2cc(Cl)ccc2N1CC1CC1` ?
// result false (0)

// query What outcome does the record of this test show for `CCOP(=O)(O)C(N)=O` ?
// result false (0)

// query What outcome does the record of this test show for `CO/N=C(/C(=O)OC)c1ccccc1COc1ccccc1C` ?
// result false (0)

// query What outcome does the record of this test show for `O=C1C=CC(=O)c2ccccc21` ?
// result true (1)

// query What outcome does the record of this test show for `Cc1cc(C(C)(C)c2ccc(O)c(C)c2)ccc1O` ?
// result true (1)

// query What outcome does the record of this test show for `Oc1c(Cl)cc(Cl)cc1Cl` ?
// result false (0)

// query What outcome does the record of this test show for `CNC(=O)Oc1ccccc1C(C)C` ?
// result false (0)

// query What outcome does the record of this test show for `CCCCc1ccccc1` ?
// result false (0)

// query What outcome does the record of this test show for `COP(=O)(OC)O/C(=C\Cl)c1cc(Cl)c(Cl)cc1Cl` ?
// result false (0)

// query What outcome does the record of this test show for `O=C1C(I)=CC(=C(c2cc(I)c(O)c(I)c2)c2ccccc2C(=O)O)C=C1I` ?
// result false (0)
